TESTED ON: Human immunodeficiency virus type 1 reverse transcriptase (Human immunodeficiency virus 1) (UniProt Q72547)
EXPERIMENT: Compound ability to inhibit the production of HIV reverse transcriptase (RT) in culture supernatant of CEM-CL13 on at 7 days at a concentration 1 uM
Format: functional
Examples of compounds with documented Activity (c.p.m. 50ul-1) follow.
ASSAY ENDPOINT: Activity (c.p.m. 50ul-1)

1) CCCCCCCCCCCCCCCCOP(=O)(OC[C@H]1OC(O)[C@@H](O)[C@@H](O)[C@@H]1O)OC[C@H]1OC(n2cc(C)c(=O)[nH]c2=O)C[C@@H]1N=[N+]=[N-] (some centres undefined): 2000
2) CCCCCCCCCCCCCCCCOP(=O)(OC[C@H]1OC(O)[C@H](O)[C@@H](O)[C@@H]1O)OC[C@H]1OC(n2cc(C)c(=O)[nH]c2=O)C[C@@H]1N=[N+]=[N-] (some centres undefined): 2600
3) Cc1cn([C@H]2C[C@H](N=[N+]=[N-])[C@@H](CO)O2)c(=O)[nH]c1=O: 100
4) CCCCCCCCCCCCCCCCOP(=O)(OCCO[C@H]1O[C@H](CO)[C@@H](O)[C@H](O)[C@@H]1O)OCC1OC(n2cc(C)c(=O)[nH]c2=O)CC1N=[N+]=[N-] (some centres undefined): 6000

====

TESTED ON: UniProt Q72547
CONDITION CONTEXT: at 25 µM
Description: Percent inhibition measured as the production of HIV reverse transcriptase (RT) in culture supernatant of monocytic U937 on at 7 days at a concentration 25 uM
Examples of compounds with documented inhibition follow.
ASSAY ENDPOINT: inhibition (%)

1) Cc1cn([C@H]2C[C@H](N=[N+]=[N-])[C@@H](COP(=O)(O)OC[C@H]3OC(O)[C@@H](O)[C@@H](O)[C@@H]3O)O2)c(=O)[nH]c1=O (some centres undefined): 86
2) Cc1cn([C@H]2C[C@H](N=[N+]=[N-])[C@@H](COP(=O)(O)OC[C@H]3OC(O)[C@H](O)[C@@H](O)[C@@H]3O)O2)c(=O)[nH]c1=O (some centres undefined): 73
3) Cc1cn([C@H]2C[C@H](N=[N+]=[N-])[C@@H](COP(=O)(O)OCCO[C@H]3O[C@H](CO)[C@@H](O)[C@H](O)[C@@H]3O)O2)c(=O)[nH]c1=O: 77
4) Cc1cn([C@H]2C[C@H](N=[N+]=[N-])[C@@H](CO)O2)c(=O)[nH]c1=O: 96

====

Examples of compounds with documented Protection follow.
TESTED ON: Human immunodeficiency virus type 1 reverse transcriptase (Human immunodeficiency virus 1) (UniProt Q72547)
EXPERIMENT: Compounds were evaluated for anti-RT activity by MTT dose and %protection was reported at 9 days of culture
Assay type: functional
ASSAY ENDPOINT: Protection (%)

1) Cc1cn([C@H]2C[C@H](N=[N+]=[N-])[C@@H](COP(=O)(O)OC[C@H]3OC(O)[C@@H](O)[C@@H](O)[C@@H]3O)O2)c(=O)[nH]c1=O (some centres not stated): 22
2) CCCCCCCCCCCCCCCCOP(=O)(OC[C@H]1OC(O)[C@@H](O)[C@@H](O)[C@@H]1O)OC[C@H]1OC(n2cc(C)c(=O)[nH]c2=O)C[C@@H]1N=[N+]=[N-] (some centres not stated): 18
3) Cc1cn([C@H]2C[C@H](N=[N+]=[N-])[C@@H](CO)O2)c(=O)[nH]c1=O: 76
4) CCCCCCCCCCCCCCCCOP(=O)(OCCO[C@H]1O[C@H](CO)[C@@H](O)[C@H](O)[C@@H]1O)OCC1OC(n2cc(C)c(=O)[nH]c2=O)CC1N=[N+]=[N-] (some centres not stated): 4
5) Cc1cn([C@H]2C[C@H](N=[N+]=[N-])[C@@H](COP(=O)(O)OC[C@H]3OC(O)[C@H](O)[C@@H](O)[C@@H]3O)O2)c(=O)[nH]c1=O (some centres not stated): 13
6) Cc1cn([C@H]2C[C@H](N=[N+]=[N-])[C@@H](COP(=O)(O)OCCO[C@H]3O[C@H](CO)[C@@H](O)[C@H](O)[C@@H]3O)O2)c(=O)[nH]c1=O: 12
7) CCCCCCCCCCCCCCCCOP(=O)(OC[C@H]1OC(O)[C@H](O)[C@@H](O)[C@@H]1O)OC[C@H]1OC(n2cc(C)c(=O)[nH]c2=O)C[C@@H]1N=[N+]=[N-] (some centres not stated): 52
